- testedTarget: Mcl-1 (Homo sapiens)
- assayInfo: fluorescence polarizing binding assay, binding to Mcl-1
- testSettings: fluorescence polarizing binding assay
propertyLabel: pIC50
Recall that pIC50 is obtained by taking minus log10 of the concentration measured in molar.

// lookup pIC50 for CCOC(=O)c1c(C)oc2c1c(C(c1ccc(F)cc1)N1CCN(C)CC1)c(O)c1ccccc12 (stereo not shown)
6.72

* * *

- testedTarget: Mcl-1 (Homo sapiens, UniProt Q07820)
- Sequence (Q07820 whole entry, species assumed): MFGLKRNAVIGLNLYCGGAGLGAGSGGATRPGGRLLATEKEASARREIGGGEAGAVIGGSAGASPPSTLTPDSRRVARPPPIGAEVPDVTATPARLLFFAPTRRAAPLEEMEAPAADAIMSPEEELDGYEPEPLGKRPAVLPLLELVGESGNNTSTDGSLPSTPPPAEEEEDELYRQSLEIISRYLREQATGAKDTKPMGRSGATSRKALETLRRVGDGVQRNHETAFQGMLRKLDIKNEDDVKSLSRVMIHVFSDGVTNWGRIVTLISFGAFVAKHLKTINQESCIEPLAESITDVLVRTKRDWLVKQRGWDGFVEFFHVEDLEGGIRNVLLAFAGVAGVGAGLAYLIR
propertyLabel: pKi
Recall that pKi is obtained by taking minus log10 of the concentration measured in molar.

>  <compound>
CCOC(=O)c1c(C)oc2c1c(C(c1ccncc1)N1CCOCC1)c(O)c1ccccc12 (centres unmarked) [UMI-1007]

>  <pKi>
7.70

$$$$

Shifting focus to the compound that follows.
// lookup pKi for CCOC(=O)c1c(C)oc2c1c(C(c1ccnc(Cl)c1)N1CCOCC1)c(O)c1ccccc12 (centres unmarked) [UMI-1026]
7.52
